Every entry's value here was drawn from patent US20210115113A1.

Molecular target: T1, EBV gp350 expressed on the surface of stably transfected CHO cells (Epstein-Barr virus, UniProt P03200 1-907)
T1 construct: also called native gp350; gp350 expressing CHO cells
T1 sequence: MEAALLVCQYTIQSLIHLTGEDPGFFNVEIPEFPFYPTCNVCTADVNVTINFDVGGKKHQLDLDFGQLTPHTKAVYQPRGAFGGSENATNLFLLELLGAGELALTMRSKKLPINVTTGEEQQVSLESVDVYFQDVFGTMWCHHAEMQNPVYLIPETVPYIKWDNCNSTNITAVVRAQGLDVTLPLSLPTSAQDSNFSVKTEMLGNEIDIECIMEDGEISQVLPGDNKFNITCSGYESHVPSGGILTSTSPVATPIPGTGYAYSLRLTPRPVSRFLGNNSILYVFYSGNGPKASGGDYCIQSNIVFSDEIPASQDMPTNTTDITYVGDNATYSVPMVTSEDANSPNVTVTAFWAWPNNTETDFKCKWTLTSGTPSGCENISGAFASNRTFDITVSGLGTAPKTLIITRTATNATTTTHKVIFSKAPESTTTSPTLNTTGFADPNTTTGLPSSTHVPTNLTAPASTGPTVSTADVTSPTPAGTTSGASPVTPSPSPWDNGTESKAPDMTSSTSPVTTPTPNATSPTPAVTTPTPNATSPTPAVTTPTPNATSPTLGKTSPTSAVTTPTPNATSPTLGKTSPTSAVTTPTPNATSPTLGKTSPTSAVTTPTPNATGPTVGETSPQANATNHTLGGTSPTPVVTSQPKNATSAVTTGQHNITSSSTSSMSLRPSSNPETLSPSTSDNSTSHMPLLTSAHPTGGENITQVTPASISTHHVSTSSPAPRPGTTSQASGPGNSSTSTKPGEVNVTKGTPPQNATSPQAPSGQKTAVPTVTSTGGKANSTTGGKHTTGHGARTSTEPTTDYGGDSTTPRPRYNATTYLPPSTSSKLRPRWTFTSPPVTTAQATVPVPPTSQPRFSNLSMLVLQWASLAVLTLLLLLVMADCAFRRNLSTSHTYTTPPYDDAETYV
Experiment: cross-competition on gp350-CHO cells (flow), unlabeled 500 µg/ml; competitor: biotinylated 54A1
# % inhibition of biotinylated nAbs values compiled below
Report the value in % with no unit label.

[[record]]
binder = "HB1 (antibody, V domains shown) VH: PGLVAPSQSLSITCTVSGFLLTTYGVHWVRQPPGKGLEWLGVIWAGGSTNYNSALMSRLSINKDISKSQVFLKMNSLQTDDTAMYYCTRDRGYGYLYAMDYWGQGTSVTVSS VL: KFMSTSVGDRVSVTCKASQNVGTNVAWYQQKPGQSPKALIYSTSSRYTGVPDRFAGSGSGTDYTLTISNVQSEDLAEYFCQQYNTYPYTFGGGTRLDIKR"
property_label = "% inhibition of biotinylated nAbs"
result_units = "%"
reported = 4

[[record]]
binder = "HB17 (antibody, V domains shown) VH: AELVIPGASVKVSCKASGYTFTSYWIHWVKQWPGQGLEWIGEINPNNGHTNYNEKFKSKATLTVDKSSSTAYMQLSSLTSEDSAVYYCARNLFYYSRPDYWGQGTSVTVSS VL: SSLSASLGDRVTISCRASQDIGNYLNWYQQKPDGTIKLLIYYTSRLHSGVPSRFSGSGSGTDYSLTISNLEEEDIATYFCQQGNTLPPTFGGGTKLEIKR"
property_label = "% inhibition of biotinylated nAbs"
result_units = "%"
reported = 0


Given the entry HB20 (antibody, V domains shown) VH: ELVKPGASVKLSCKASGYTFTSYWIQWVKQRPGQGLEWIGEINPTNGHTNYNEKFKTKATLTVDKSSSTAYMRLSSLTSEDSAVYYCARNLYYYGRPDYWGQGTSVTVSS VL: SSLSASLGDRVTISCRASQDIGNYLNWYQQKPDGTVKLLIYYTSRLHSGVPSRFSGSGSGTDYSLTISNLEQEDIATYFCQQGNALPPTFGGGTKLEIKR , report its measured % inhibition of biotinylated nAbs. 0
